Documented inhibition across a set of molecules
study.system: Genome polyprotein (Dengue virus type 2 (strain 16681-PDK53))
protocol.details: flavivirus cap methylation enzyme inhibition – biochemical, confirmation dose response, primary screen (AID 588689)
experimental.conditions: Dengue-2 NS5 methyltransferase capping enzyme assay, at 25 µM, hits give high values
About 1,000 (0.29%) of roughly 340,000 compounds were called active. A selection follows. Results with a measured potency or affinity are listed apart.
Provide the reading as a plain figure in %.

Completed entries (count: 8):
INSERT INTO assay_data (molecule, measured) VALUES
  ('COc1ccccc1OCC#CCSc1ncccn1', -53.6),
  ('O=C(c1ccc(CS(=O)c2ccc(F)cc2)o1)N1CCN(C2CCCCC2)CC1 (centres undefined)', -10.8),
  ('Clc1ccc(Oc2nc(Oc3ccc(Cl)cc3)nc(N3CCOCC3)n2)cc1', 5.62),
  ('COC(=O)c1cccc(CSc2nc(-c3ccccc3)c(C#N)c(=O)[nH]2)c1', 11.1),
  ('COc1ccc(CCNC(=O)c2nnn(CC(=O)Nc3c(C)cc(C)cc3C)c2N)cc1OC', -7.1),
  ('Cc1cccc(N(CC(=O)Nc2ccccc2-c2ccccc2)S(=O)(=O)c2ccccc2)c1C', 1.45),
  ('CC(C)c1ccc(-c2csc3nc[nH]c(=O)c23)cc1', -4.66),
  ('Cc1cccc(-n2cnc3sc(C)c(C)c3c2=O)c1', 3.09);

Please examine the following record next.
// inhibition (Genome polyprotein (Dengue virus type 2 (strain 16681-PDK53))) for COc1cc(/C=C2/NC(=O)NC2=O)cc(Br)c1OCc1ccc(C(=O)O)cc1 = -4.44

----------
study.system: Genome polyprotein (Dengue virus type 2 (strain 16681-PDK53))
protocol.details: flavivirus cap methylation enzyme inhibition – biochemical, confirmation dose response, primary screen (AID 588689)
experimental.conditions: Dengue-2 NS5 methyltransferase capping enzyme assay, at 25 µM, hits give high values
Among all 340,000 compounds or so, about 1,000 (0.29%) were called active. Not all results are given here. Potency and affinity values are given separately.
Documented inhibition across a set of compounds
Provide the reading as a plain figure in %.

Completed entries (count: 10):
INSERT INTO assay_data (compound, outcome_measure, measured) VALUES
  ('Oc1cccc(/C=N/NC(=S)Nc2cccnc2)c1O', 'inhibition', -2.88),
  ('CC1CC(C)CN(C(=O)/C=C/c2ccc([N+](=O)[O-])s2)C1 (configuration not stated)', 'inhibition', -5.44),
  ('COc1cccc(N2C(=O)/C(=C\c3cccs3)NC2=S)c1', 'inhibition', -5.28),
  ('N#CCCn1cc(/C=N/O)c(-c2ccc(F)cc2)n1', 'inhibition', -2.03),
  ('CC(NC(=O)c1cccnc1)C(c1cccs1)N1CCOCC1 (configuration not stated)', 'inhibition', 0),
  ('COC(=O)c1ccc(N2NC(=O)/C(=C/c3ccc(OC)c(OC)c3)C2=O)cc1', 'inhibition', 34.3),
  ('COc1cccc(NCc2ccc([N+](=O)[O-])s2)c1', 'inhibition', -8.01),
  ('COc1ccc(NC(=O)/C(C#N)=C/c2ccc(-c3ccc(Cl)c(C(=O)O)c3)o2)cc1', 'inhibition', 3.44),
  ('CCN(CC)c1ccc(/C=N/Nc2cccc(C)c2)c(O)c1', 'inhibition', 7.27),
  ('Oc1c(Br)cc(Br)cc1/C=N/Nc1ccc(Cl)nn1', 'inhibition', 7.11);

Sure, the documented inhibition for O=C1C=C(c2ccc(C(=O)O)cc2)C[C@@H](c2ccc3c(c2)OCO3)C1 is 0.83

Sure, the documented inhibition for Nc1c(C(=O)O)ccc2c1C(=O)c1ccccc1C2=O is 24.7

Sure, the documented inhibition for CN(C)S(=O)(=O)c1cccc2c1C(=O)c1ccccc1C2=O is -1.92

Sure, the documented inhibition for COCCN(C(=O)COC(=O)CCc1ccccc1)c1c(N)n(Cc2ccccc2)c(=O)[nH]c1=O is 0

Sure, the documented inhibition for O=C1NN(c2cccc(Br)c2)C(=O)/C1=C/c1ccc(-c2cc([N+](=O)[O-])ccc2O)o1 is 70.1

Origin of measurements: PubChem BioAssay AID588689
